B1: 3'-5' exoribonuclease 1, residues 65 to 114; numbered along this chain, Q8IV48 (parent)
chain: VYKEIAITNGCINRMSKEELRAKLSEFKLETRGVKDVLKKRLKNYYKKQK

# Variants of: B1
# assay.procedure: abundance fitness (aPCA) (normalised: wild type 0, dead -1); higher = more abundant; growth selection in yeast, the domain comes from the species named
# details: Homo sapiens
Label Not met if abundance fitness falls below -0.2; label Met in every other case.

**Q:** Does the variant S25F have recorded abundance fitness that is -0.2 or more?
**A:** Met

**Q:** Does the variant V34M have recorded abundance fitness that is -0.2 or more?
**A:** Not met

**Q:** Does the variant L38R have recorded abundance fitness that is -0.2 or more?
**A:** Not met

**Q:** Does the variant I7E have recorded abundance fitness that is -0.2 or more?
**A:** Met

**Q:** Does the variant R21P have recorded abundance fitness that is -0.2 or more?
**A:** Not met

**Q:** Does the variant G33Y have recorded abundance fitness that is -0.2 or more?
**A:** Not met

**Q:** Does the variant I7V have recorded abundance fitness that is -0.2 or more?
**A:** Met

**Q:** Does the variant E18P have recorded abundance fitness that is -0.2 or more?
**A:** Met

**Q:** Does the variant R21T have recorded abundance fitness that is -0.2 or more?
**A:** Not met

**Q:** Does the variant S16G have recorded abundance fitness that is -0.2 or more?
**A:** Not met

**Q:** Does the variant G10W have recorded abundance fitness that is -0.2 or more?
**A:** Not met

**Q:** Does the variant R41Q have recorded abundance fitness that is -0.2 or more?
**A:** Not met

**Q:** Does the variant E26T have recorded abundance fitness that is -0.2 or more?
**A:** Met

**Q:** Does the variant G33M have recorded abundance fitness that is -0.2 or more?
**A:** Not met

**Q:** Does the variant I12V have recorded abundance fitness that is -0.2 or more?
**A:** Met

**Q:** Does the variant S16L have recorded abundance fitness that is -0.2 or more?
**A:** Not met

**Q:** Does the variant V1K have recorded abundance fitness that is -0.2 or more?
**A:** Met

**Q:** Does the variant T31Q have recorded abundance fitness that is -0.2 or more?
**A:** Met

**Q:** Does the variant E4F have recorded abundance fitness that is -0.2 or more?
**A:** Not met

**Q:** Does the variant V34A have recorded abundance fitness that is -0.2 or more?
**A:** Met

**Q:** Does the variant E4T have recorded abundance fitness that is -0.2 or more?
**A:** Met

**Q:** Does the variant K3D have recorded abundance fitness that is -0.2 or more?
**A:** Met

Data provenance is the Human Domainome abundance scans (Beltran et al. 2025).
